# System: SFV-Rluc
# conditions: primary screening of chemical libraries; compounds tested at 50 µM
So basically: SFV replication % left at 50% or higher? That is true (1). Lower than 50%? That is false (0).

Solved cases below.
{"molecule": "O=C1CN=C(c2ccccc2)c2cc([N+](=O)[O-])ccc2N1", "group label": "false (0)"}
{"molecule": "CCN(CC)C(=O)c1ccc(O)c(OC)c1", "group label": "true (1)"}
{"molecule": "O=c1cc(-c2ccc(O)cc2)oc2cc(O)cc(O)c12", "group label": "false (0)"}
{"molecule": "Oc1ccccc1O", "group label": "true (1)"}
{"molecule": "CC(C)(CO)[C@@H](O)C(=O)NCCC(=O)[O-].CC(C)(CO)[C@@H](O)C(=O)NCCC(=O)[O-].[Ca+2]", "group label": "true (1)"}

## Input Answer whether SFV replication % left of CCCCNCC(O)c1ccc(O)cc1 (centres unmarked) is greater than or equal to 50%.
## Output true (1)

## Input Answer whether SFV replication % left of CCC(N)C(O)c1ccc(O)c(O)c1 (centres unmarked) is greater than or equal to 50%.
## Output true (1)

## Input Answer whether SFV replication % left of CS(=O)(=O)OCCCCOS(C)(=O)=O is greater than or equal to 50%.
## Output true (1)

## Input Answer whether SFV replication % left of COc1cc(/C=C/C(=O)O)ccc1O is greater than or equal to 50%.
## Output true (1)

## Input Answer whether SFV replication % left of Cl.Cl.OCCOCCN1CCN(C(c2ccccc2)c2ccc(Cl)cc2)CC1 (centres unmarked) is greater than or equal to 50%.
## Output true (1)

----------
Quick note: these are SFV replication % left (surviving fraction, remaining percentage of SFV replication) numbers for system: SFV-Rluc
Counter-ions that a name gives are not always drawn.
Provide the reading as a plain figure in %.

## Input Please indicate recorded SFV replication % left (surviving fraction, remaining percentage of SFV replication) of Nc1ccc(Cl)cc1C(=O)c1ccccc1F measured with SFV-Rluc.
## Output 167.4

## Input Please indicate recorded SFV replication % left (surviving fraction, remaining percentage of SFV replication) of CC(C)(O)C(Cl)(Cl)Cl measured with SFV-Rluc.
## Output 84.2

## Input Please indicate recorded SFV replication % left (surviving fraction, remaining percentage of SFV replication) of CN(C)CC/C=C1/c2ccccc2Sc2ccc(Cl)cc21 [Chlorprothixene hydrochloride] measured with SFV-Rluc.
## Output 90.3

----------
# Test system: SFV-Rluc
# conditions: primary screening of chemical libraries; compounds tested at 50 µM
Examples of compounds with documented SFV replication % left follow.
Provide the reading as a plain figure in %.

{"compound": "COc1cc(C(=O)O)cc(OC)c1OC [NC-102]", "quantity": "SFV replication % left", "assay result": 34.0}
{"compound": "Oc1ccc(C(O)CNCCCCCCNCC(O)c2ccc(O)c(O)c2)cc1O (stereo not drawn) [PC-088]", "quantity": "SFV replication % left", "assay result": 124.9}
{"compound": "O=C(O)c1cc2cc(Br)cc(Br)c2oc1=O [NC-125]", "quantity": "SFV replication % left", "assay result": 67.4}
{"compound": "O=c1c(-c2ccc(O)cc2)coc2cc(O)cc(O)c12 [NC-042]", "quantity": "SFV replication % left", "assay result": 45.6}

## Input Answer with the recorded SFV replication % left for the compound listed here: NCC(O)c1cccc(O)c1 (stereo not drawn) [PC-135]
## Output 126.3

## Input Answer with the recorded SFV replication % left for the compound listed here: O=C(O)c1cc(O)ccc1O [NC-024]
## Output 127.8

----------
Quick note: these are SFV replication % left (surviving fraction, remaining percentage of SFV replication) numbers for system: SFV-Rluc
Counter-ions that a name gives are not always drawn.
Provide the reading as a plain figure in %.

As a guide, the following entries are already answered.
{"compound": "Cc1cc(=O)oc2c3c4c(cc12)CCCN4CCC3", "assay result": 34.6}
{"compound": "O=c1oc2c(O)c(O)cc3c(=O)oc4c(O)c(O)cc1c4c23", "assay result": 64.9}
{"compound": "CC(CN1c2ccccc2Sc2ccccc21)[N+](C)(C)CCO (stereo not drawn) [N-Hydroxyethylpromethazine chloride]", "assay result": 102.2}
{"compound": "CC(=O)Nc1ccc(O)cc1 [Acetaminophen [paracetamol]]", "assay result": 63.5}
{"compound": "CS(=O)(=O)OCCCCOS(C)(=O)=O", "assay result": 51.8}
{"compound": "CC(Cc1ccc2c(c1)OCO2)NCC(O)c1ccc(O)c(O)c1 (stereo not drawn) [Protokylol hydrochloride]", "assay result": 128.4}

## Input Answer with the recorded SFV replication % left (surviving fraction, remaining percentage of SFV replication) for the compound listed here: O=C1CN=C(c2ccccc2)c2cc([N+](=O)[O-])ccc2N1
## Output 46.0

## Input Answer with the recorded SFV replication % left (surviving fraction, remaining percentage of SFV replication) for the compound listed here: CC(Cc1ccc(O)c(O)c1)C(C)Cc1ccc(O)c(O)c1 (stereo not drawn) [Nordihydroguaiaretic acid]
## Output 35.6

## Input Answer with the recorded SFV replication % left (surviving fraction, remaining percentage of SFV replication) for the compound listed here: CCOC(=O)c1ccc(N)cc1
## Output 43.4

----------
# System: SFV-Rluc
Examples of compounds with documented SFV replication % left (surviving fraction, remaining percentage of SFV replication) follow.
Provide the reading as a plain figure in %.

As a guide, the following entries are already answered.
{"compound": "C[C@H]1O[C@@H](O[C@H]2[C@@H](O)C[C@H](O[C@H]3[C@@H](O)C[C@H](O[C@H]4CC[C@@]5(C)[C@H](CC[C@@H]6[C@@H]5C[C@@H](O)[C@]5(C)[C@@H](C7=CC(=O)OC7)CC[C@]65O)C4)O[C@@H]3C)O[C@@H]2C)C[C@H](O)[C@@H]1O [Digoxin]", "assay result": 141.9}
{"compound": "CC(=O)c1ccccc1O [2-Hydroxyacetophenone]", "assay result": 129.7}
{"compound": "O=C(O)c1cc2cc(Br)cc(Br)c2oc1=O [6,8-Dibromocoumarin carboxylic acid]", "assay result": 67.4}
{"compound": "CC(C)NCC(O)c1ccc(O)c(O)c1.CC(C)NCC(O)c1ccc(O)c(O)c1.O=S(=O)(O)O (racemic) [(+/-)-Isoproterenol hemisulfate salt]", "assay result": 110.9}
{"compound": "O=c1cc(-c2ccccc2)oc2c1ccc1ccccc12 [Alphanaphthoflavone]", "assay result": 14.6}
{"compound": "CC(C)(C)NC[C@H](O)COc1ccccc1C1CCCC1 [Penbutolol]", "assay result": 45.0}
{"compound": "CCCCNC(=O)NS(=O)(=O)c1ccc(C)cc1 [Tolbutamide]", "assay result": 80.2}

## Input Answer with the recorded SFV replication % left (surviving fraction, remaining percentage of SFV replication) for the compound listed here: N/C(CC(O)COc1cccc2ccccc12)=N/O (centres unmarked) [Nadoxolol]
## Output 20.8

----------
# Tested on: SFV-Rluc
# conditions: primary screening of chemical libraries; compounds tested at 50 µM
Examples of compounds with documented SFV replication % left follow.
Provide the reading as a plain figure in %.

As a guide, the following entries are already answered.
{"compound": "C[C@H](N)[C@H](O)c1cccc(O)c1.O=C(O)C(O)C(O)C(=O)O", "SFV replication % left (%)": 96.5}
{"compound": "OCc1ccccc1O[C@@H]1O[C@H](CO)[C@@H](O)[C@H](O)[C@H]1O", "SFV replication % left (%)": 104.4}
{"compound": "O=C1NC2NC(=O)NC2N1 (stereo not shown)", "SFV replication % left (%)": 55.2}
{"compound": "COCCc1ccc(OCC(O)CNC(C)C)cc1.COCCc1ccc(OCC(O)CNC(C)C)cc1.O=C(O)C(O)C(O)C(=O)O (stereo not shown)", "SFV replication % left (%)": 65.7}

## Input Answer with the recorded SFV replication % left for the compound listed here: Nc1ccc(Cl)cc1C(=O)c1ccccc1F
## Output 167.4

## Input Answer with the recorded SFV replication % left for the compound listed here: CC(C)OC(=O)c1cc(O)c(O)c(O)c1
## Output 124.0

## Input Answer with the recorded SFV replication % left for the compound listed here: O[C@H]1[C@H](O)[C@@H](O)[C@H](O)[C@@H](O)[C@H]1O
## Output 106.0

## Input Answer with the recorded SFV replication % left for the compound listed here: CCC(CN(C)C)(CN(C)C)OC(=O)c1ccccc1.Cl
## Output 43.4

## Input Answer with the recorded SFV replication % left for the compound listed here: CC(C)NCC(O)COc1ccc(CC(N)=O)cc1 (stereo not shown)
## Output 44.2

## Input Answer with the recorded SFV replication % left for the compound listed here: O=c1ccc2ccc(O)cc2o1 [NC-104]
## Output 93.1

## Input Answer with the recorded SFV replication % left for the compound listed here: CCCCCCCCCCCCCCCC[N+](C)(C)C.[Br-]
## Output 75.0

## Input Answer with the recorded SFV replication % left for the compound listed here: CCN(CC)c1ccc2cc(-c3nc4ccccc4[nH]3)c(=O)oc2c1
## Output 37.3

The reported measurements were obtained from paper PMC3242765.
